// RMSD (Å) with Compound 34 lookup, one value per entry
- system: human TNFα trimer (Homo sapiens, UniProt P01375)
- Construct: His6Smt-tag (N, cleaved yes); made in house; host or cells: E. coli (vector pEMB54)
- Sequence (P01375 with tags, fused parts or gaps): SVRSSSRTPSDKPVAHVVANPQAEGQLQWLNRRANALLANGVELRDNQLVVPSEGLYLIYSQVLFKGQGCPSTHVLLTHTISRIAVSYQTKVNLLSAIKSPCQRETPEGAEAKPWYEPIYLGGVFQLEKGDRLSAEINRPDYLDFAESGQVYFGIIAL
- measurement notes: RMSD of crystal structure of compound-bound TNFα trimer to Reference Structure Compound 34
- measurement context: Cα atoms of β-sheet residues, all three subunits, PyMOL
- Experimental: Cells were pre-cultured at 37° C. in rich media, induced with the addition of 0.1% arabinose and allowed to express overnight at 25° C. in vector pEMB54. This vector introduces a cleavable N-terminal His6Smt-tag. The cells were lysed and purified by Ni-NTA chelate chromatography. […] X-ray diffraction data were collected from a synchrotron source at a wavelength, most frequently, of 0.976484 Å and recorded on CCD detector. […] The RMSD was calculated for each structure against all others. […]
Number first, unit second.

Sample records with RMSD (Å) with Compound 34:
molecule	measured endpoint	test result
N#Cc1ccc2nc(COc3ccc(C(N)=O)nc3)n(Cc3ccccc3OC(F)F)c2c1	RMSD (Å) with Compound 34	0.24 Å
CS(=O)(=O)c1ccc(-c2ccc3nc4n(c3c2)C(c2ccccc2OC(F)F)CC4)cc1 (stereo not shown)	RMSD (Å) with Compound 34	0.28 Å
CC(c1ccccc1OC(F)F)n1c(COc2cccc(N3CCCC3=O)c2)nc2ccc(Br)cc21 (stereo not shown) [Compound 50]	RMSD (Å) with Compound 34	0.23 Å

Kindly consider the entry below.
What RMSD (Å) with Compound 34 appears in the records for this molecule with human TNFα trimer (Homo sapiens, UniProt P01375)? Cc1ccc(C)c(Cn2c(C(N)c3ccccc3)nc3ccccc32)c1 (stereo not shown) 0.25 Å
